test system: AncSZ; experiment: phosphorylation enrichment, bacterial display (enrichment ratio); higher = better substrate or ligand; peptides without Tyr show the background
Assign phosphorylation enrichment to each entry below.
No unit in the answer, only the number.

GET /values?readout=phosphorylation enrichment&system=AncSZ&item= DLAGRYYALRS [CKB_Y173_K177R]
0.729

Now consider KDKLPYPYDDP [GPX2_Y125] and answer again.
1

Now consider TCFDKYTGNTF [FN1_Y101_YF] and answer again.
1.35

Now consider ASNNPYFRDQA [RPGRIP1_Y846] and answer again.
0.605

Now consider VEEDTYTMPST [PTK2_Y407_D402V] and answer again.
4.74

Now consider TNFPLYLRSLE [MTM1_Y71_R69P_YF] and answer again.
0.716

Now consider TILEHYRRTHC [MYBPC3_Y1119_V1115I] and answer again.
0.809

Now consider PTTKTYFPHFF [HBA1_Y43_D48Y_YF] and answer again.
0.681

Now consider YMKEPYIQSRF [HIPK4_Y175_V171M] and answer again.
0.622

Now consider QMVGMYASFFM [AVPR2_Y124_S127F_YF] and answer again.
1.88

Now consider PFRFIYMAVQH [PTPN11_Y515_Q510P_YF] and answer again.
1.09

Now consider SGIYQYIIAKF [FOXL2_Y83] and answer again.
1.15

Now consider GHLFAYDWIRI [BEST1_Y227_S231R_YF] and answer again.
1

* * *

molecular target: SHP2-C SH2; experiment: SH2 binding enrichment of the phosphorylated peptide, bacterial display (enrichment ratio); higher = better substrate or ligand; peptides without Tyr show the background;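 also: peptide library displayed on the E. coli surface as eCPX fusions, selected cells deep-sequenced, score is each peptide's frequency after selection divided by its frequency in the input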
Please note: true applies when SH2 binding enrichment is 0.8 or greater, and false applies otherwise.

API: above_or_equal(metric=SH2 binding enrichment, cutoff=0.8) for item FRPPFYHRNCM [HGD_Y334_YF]
true

Now consider SISLRYEGRVF [ABL1_Y167_YF] and answer again.
true

Now consider SSSAIYDNPDL [DCP1B_Y191_N195D] and answer again.
false

Now consider PGDGEYFTLQI [TP53_Y327_L323G] and answer again.
false

Now consider YTGDIYSNSNL [LZTR1_Y141] and answer again.
false

Now consider GSRGKCSSGFR [ATM_Y332_Y332C] and answer again.
false

Now consider ILCTVYAFKTR [GRM3_Y754] and answer again.
true

Now consider AVAFVYFKSIG [ADGRL4_Y301_YF] and answer again.
false

Now consider KSVVTYSPTTG [ITGB3BP_Y32_I30V] and answer again.
false

Now consider KGSEGYLAAIF [NF1_Y2503_T2507I_YF] and answer again.
false

Now consider RKLASYRSCLL [DHX37_Y1080] and answer again.
true

Now consider ETGNLYIAKVE [CNTN4_Y180] and answer again.
false

Now consider MGSFNYLGFAW [SPTLC2_Y178_R183W_YF] and answer again.
false

Now consider LTYHMYADPNF [SOS1_Y618] and answer again.
true

Now consider KVNKIYFPDFI [LIG3_Y767_YF] and answer again.
true

Now consider IFETDYFRKGG [INSR_Y1189_YF] and answer again.
false

Now consider FGLQAYTEVKT [ALDH2_Y502_YF] and answer again.
true

Now consider TKAEKYVNKAK [PLCG1_Y991] and answer again.
true

Now consider ETEMLYGSAPR [PRC1_Y464] and answer again.
false

Now consider CGTPDNIAPEI [PRKCG_Y521_Y521N] and answer again.
false

Now consider KDFETYQPFQN [CTNND2_Y1157_YF] and answer again.
false

Now consider GEYYRYLAEVA [YWHAG_Y133_D129E] and answer again.
true

Now consider PVDTFYDSTRG [DYNC2H1_Y2231_M2227V_YF] and answer again.
false

* * *

tested on: c-Abl (mouse); experiment: phosphorylation enrichment, bacterial display (enrichment ratio); higher = better substrate or ligand; peptides without Tyr show the background
Please note: yes applies when phosphorylation enrichment is 0.8 or greater, and no applies otherwise.

API: above_or_equal(metric=phosphorylation enrichment, cutoff=0.8) for item IIEDPYYGNDF [ACP1_Y132_S137F]
yes

Now consider SPPPAYTPMSG [ERBB4_Y1056] and answer again.
no

Now consider GRQVIYTENER [GPR143_Y231_G229V] and answer again.
no

Now consider GANSEYIIAEK [ECHS1_Y35_F33S] and answer again.
no

Now consider EPGSLYGCGGG [ATM_Y2019_D2016G] and answer again.
no

Now consider SAVTGYRVNVI [FN1_Y937_D940N] and answer again.
no

Now consider INQGPYENHSV [ATP6V1B1_Y462_R465H] and answer again.
no

Now consider TTKGSYSLYVR [HCK_Y180_S183Y] and answer again.
no

Now consider ETEMLYGSAPR [PRC1_Y464] and answer again.
no

Now consider FTFDPYSEEDP [IL2RB_Y387_YF] and answer again.
no

Now consider FGRTFYNQANM [MCCC2_Y196_I200N] and answer again.
yes

Now consider GIYEDYVEGLR [MYL6_Y89_T85I] and answer again.
no

Now consider FYLGAYDRFLP [SLC22A5_Y486_V481F] and answer again.
yes

Now consider STSKTYVISRT [RBBP6_Y87] and answer again.
no

Now consider MGSFNYLGFAW [SPTLC2_Y178_R183W_YF] and answer again.
no

Now consider DTMQTYNGNDE [TSPAN7_Y131_A127T] and answer again.
no

Now consider PSQRPYVYYYS [PTEN_Y174_R173P] and answer again.
yes

Now consider DGTESYHTVSS [PLK1_Y462_L463H] and answer again.
no

Now consider PTTKTYFPHFF [HBA1_Y43_D48Y_YF] and answer again.
no

Now consider QEGPEYWDQET [HLA-A_Y83] and answer again.
yes

Now consider KFVKMYDNHQL [MYO9A_Y203_YF] and answer again.
no

Now consider CEQELYSQLVF [WAS_Y102_W97C_YF] and answer again.
yes

Now consider DDFDLYGGEKF [PTPN11_Y66_Y62D_YF] and answer again.
no

Now consider NKKYHYRELPV [ERN2_Y860_H858Y] and answer again.
no

Now consider WISNRYPDFSS [PRPH2_Y184_L185P] and answer again.
no

Now consider VNFDYYTVNLG [GFPT1_Y367_D366Y] and answer again.
yes

Now consider GRIHSYRGHLW [VHL_Y112_R107G] and answer again.
no

Now consider KVNKIYFPDFI [LIG3_Y767_YF] and answer again.
no

Now consider FKRAVYCIIGR [NUP93_Y391_YF] and answer again.
no

Now consider SGPRHYTIAAL [TTR_Y125_R124H] and answer again.
no

Now consider FKNGDYSEVMK [LCT_Y1638_N1639S] and answer again.
no

Now consider TTPAVYARVTK [CTRB2_Y246_A250T] and answer again.
yes

Now consider VHNLDYFKETT [FGFR3_Y647_K650E_YF] and answer again.
no

Now consider PVDTFYDSTRG [DYNC2H1_Y2231_M2227V_YF] and answer again.
yes

Now consider TKLKDYYIFNK [CCDC42_Y149_A144T] and answer again.
no

Now consider ENRKFYKDLKE [PURA_Y156_M157K_YF] and answer again.
no

Now consider ERDFTYDELLN [EIF2S2_Y176_E177D_YF] and answer again.
yes

Now consider PVQAPYQKVVA [HBB_Y131_A130P] and answer again.
no

Now consider TPGPNYRPGYN [USH2A_Y463] and answer again.
no

Now consider KRIKSYNQEND [RPGRIP1L_Y448_L447S] and answer again.
no

Now consider TDHLQYFDSNK [ARAP1_Y359_R358Q] and answer again.
no

Now consider YNDSAYNQQLI [ZPLD1_Y198_T197A] and answer again.
no

Now consider KNDSIYVVKGN [KIT_Y823_N822I] and answer again.
no

Now consider IVLRSYPASDH [NID2_Y449_G453D] and answer again.
no

Now consider IHTDAYVRAMT [RPE65_Y89_R85H] and answer again.
no

Now consider DLAGRYYALRS [CKB_Y173_K177R] and answer again.
no

Now consider PKGIGYGQGAG [CSRP3_Y73] and answer again.
no

Now consider KFMVGYEMLAK [GALT_Y339_Q344K] and answer again.
no

Now consider PEVSGYCHYAD [TG_Y234_C237Y] and answer again.
yes

Now consider AVIADYMFWLG [SPATA16_Y290_M286V] and answer again.
yes

Now consider PSQRHYVFFFS [PTEN_Y174_R173H_YF] and answer again.
yes

Now consider SECCKYKTDNP [OSMR_Y689_I691T] and answer again.
no

Now consider PNQRRYVFFFS [PTEN_Y174_S170N_YF] and answer again.
yes
